# Tested on: OVCAR-8 ovarian
# Method: NCI tumour cell line growth inhibition, 48 h
Experimental Readout: TGI

Please review the entries below; each comes with its answer.
CCCN(CCCCC(NC(C)=O)C(=O)NCc1ccccc1)C(=O)N(CCCl)N=O (stereo not given) = > 100 µM
N#CCCN(CCC#N)c1ccc(/C=C2\N=C(CN3C(=O)c4ccccc4C3=O)OC2=O)cc1 = > 100 µM
COc1cc2c3c(n(CCCCl)c(=O)c2cc1OC)-c1ccccc1C3=O = > 100 µM
NCC(=O)NC(CCCC(NC(=O)CN)P(=O)(O)O)P(=O)(O)O (stereo not given) = > 100 µM
O=C(CC(=O)n1nc(-c2ccccc2)c(N=Nc2ccc(Cl)cc2)c1-c1ccccc1)Nc1cccc(Cl)c1 = > 100 µM
CC(C)(C)OC(=O)N(CCCN(CCn1c2c(c3ccccc3c1=O)C(=O)c1ccccc1-2)C(=O)OC(C)(C)C)CCn1c2c(c3ccccc3c1=O)C(=O)c1ccccc1-2 = > 50 µM
CC(C(=O)N1c2ccccc2Sc2ccccc21)N1c2ccccc2Sc2ccccc21 (stereo not given) = > 100 µM
C[C@]12CC[C@@H]3c4ccc(O)cc4CC[C@H]3[C@@H]1CC[C@@H]2NS(=O)(=O)c1ccc(C(F)(F)F)cc1 = 6.95 µM

Query: Give me measured TGI, please, for this molecule: O=C(CNc1ccc(Cl)cc1)Nn1c(-c2ccccc2)nc2ccccc2c1=O
Reply: 5.53 µM

Query: Give me measured TGI, please, for this molecule: N#Cc1cnsc1
Reply: > 100 µM

Query: Give me measured TGI, please, for this molecule: C=C1C(=O)O[C@H]2[C@H]1CC/C(COC(=O)/C=C\C(=O)NCc1ccc(Cn3c(=O)sn(-c4ccc(C#N)cc4)c3=O)cc1)=C\CC[C@@]1(C)O[C@@H]21
Reply: 2.7 µM

Query: Give me measured TGI, please, for this molecule: Cc1ccc(N=NC(C(=O)c2ccccc2)C(=O)c2ccccc2)cc1
Reply: > 100 µM

Query: Give me measured TGI, please, for this molecule: COc1ccc(/C(=N/Nc2ccc([N+](=O)[O-])cc2)Sc2cc(Cl)c(C)cc2S(N)(=O)=O)cc1
Reply: > 57 µM

Query: Give me measured TGI, please, for this molecule: N#CCCN(CCC#N)c1ccc(C(=O)NN)cc1
Reply: > 100 µM

Query: Give me measured TGI, please, for this molecule: COc1ccccc1N1C(=O)/C(=C\c2cccc(Oc3ccccc3)c2)SC1c1ccccc1 (stereo not given)
Reply: > 100 µM
